Reference for the values: patent US9775844B2

assay: Plasma protein binding; format: in vitro ADME; details: all species, read-out: PPB % free @ 1 uM
ENDPOINT: fraction unbound at 1 uM

[
  {
    "SMI": "C[C@H](NC(=O)c1c(N)nn2cccnc12)c1cc2cccc(C#Cc3cnn(C)c3)c2c(=O)n1-c1ccccc1",
    "ENDPOINT": "fraction unbound at 1 uM",
    "VALUE_MEASURED": "0.01 to 0.05"
  }
]

###

test: Oral PK in the rat LPS studies (free plasma concentration); assay type: in vivo; conditions: plasma, po, p.o. 1 mg/kg, 1.5h, read-out: Free Plasma Conc

[
  {
    "MOLECULE": "CC(C)n1c([C@H](C)Nc2ncnc(N)c2C#N)cc2cccc(-c3ccc(=O)n(C)c3)c2c1=O [Compound AA, reference compound]",
    "UNITS_TEXT": "nM",
    "concentration at 1.5 h": 1.8
  }
]

###

molecular target: UniProtKB P08183
Sequence (P08183 whole entry, species assumed): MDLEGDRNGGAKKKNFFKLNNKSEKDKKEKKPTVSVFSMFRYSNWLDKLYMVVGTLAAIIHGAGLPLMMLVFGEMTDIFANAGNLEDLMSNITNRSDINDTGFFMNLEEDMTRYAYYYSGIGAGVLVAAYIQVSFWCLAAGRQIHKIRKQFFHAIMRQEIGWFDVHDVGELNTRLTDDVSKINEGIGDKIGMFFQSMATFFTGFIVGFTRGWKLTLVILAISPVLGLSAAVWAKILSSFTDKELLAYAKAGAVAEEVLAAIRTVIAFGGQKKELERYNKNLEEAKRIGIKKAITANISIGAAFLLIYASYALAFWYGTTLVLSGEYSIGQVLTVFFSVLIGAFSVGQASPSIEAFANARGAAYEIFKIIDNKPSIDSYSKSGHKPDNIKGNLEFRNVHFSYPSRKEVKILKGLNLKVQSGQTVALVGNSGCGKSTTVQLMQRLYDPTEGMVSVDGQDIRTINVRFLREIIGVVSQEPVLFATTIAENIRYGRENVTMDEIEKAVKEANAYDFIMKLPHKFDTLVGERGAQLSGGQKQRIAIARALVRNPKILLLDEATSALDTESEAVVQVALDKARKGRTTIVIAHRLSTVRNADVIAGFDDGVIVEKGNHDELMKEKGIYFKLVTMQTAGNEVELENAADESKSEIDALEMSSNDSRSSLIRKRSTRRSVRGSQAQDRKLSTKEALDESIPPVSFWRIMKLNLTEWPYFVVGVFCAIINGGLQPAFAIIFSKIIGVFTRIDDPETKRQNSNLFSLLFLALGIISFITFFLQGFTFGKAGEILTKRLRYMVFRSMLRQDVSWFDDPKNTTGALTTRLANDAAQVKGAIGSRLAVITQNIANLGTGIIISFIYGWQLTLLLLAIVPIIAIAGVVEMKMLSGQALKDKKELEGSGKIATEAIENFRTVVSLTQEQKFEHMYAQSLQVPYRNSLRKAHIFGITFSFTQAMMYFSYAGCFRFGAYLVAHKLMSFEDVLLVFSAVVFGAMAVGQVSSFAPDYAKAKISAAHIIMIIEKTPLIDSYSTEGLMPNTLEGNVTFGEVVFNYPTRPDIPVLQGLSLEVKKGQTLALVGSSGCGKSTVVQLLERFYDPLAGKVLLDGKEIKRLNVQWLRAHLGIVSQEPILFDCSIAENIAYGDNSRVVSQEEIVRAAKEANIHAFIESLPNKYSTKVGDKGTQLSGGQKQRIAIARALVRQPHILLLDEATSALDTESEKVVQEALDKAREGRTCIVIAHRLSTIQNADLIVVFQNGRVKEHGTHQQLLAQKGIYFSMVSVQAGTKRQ

[
  {
    "SMI": "C[C@H](NC(=O)c1c(N)nn2cccnc12)c1cc2cccc(C#Cc3cnn(C)c3)c2c(=O)n1-c1ccccc1",
    "IC50": "< 1000 nM"
  }
]

###

test system: Cytochrome P450 isoforms (all main CYPs); assay: Cytochrome P450 inhibition; assay type: in vitro ADME; conditions: reversible inhibition, all Cyps; read-out: Rev Cyp Inhibition IC50

[
  {
    "COMPOUND": "C[C@H](NC(=O)c1c(N)nn2cccnc12)c1cc2cccc(C#Cc3cnn(C)c3)c2c(=O)n1-c1ccccc1 [Compound BB]",
    "IC50": "> 10 µM"
  }
]

###

target: PI3K-γ in RAW264.7 macrophages (Mus musculus (Mouse), UniProt Q9JHG7); assay: Raw264.7 p110 γ assay (PI3K-γ selective cellular assay, C5a-stimulated phospho-AKT); assay type: cell-based
Sequence (Q9JHG7 whole entry): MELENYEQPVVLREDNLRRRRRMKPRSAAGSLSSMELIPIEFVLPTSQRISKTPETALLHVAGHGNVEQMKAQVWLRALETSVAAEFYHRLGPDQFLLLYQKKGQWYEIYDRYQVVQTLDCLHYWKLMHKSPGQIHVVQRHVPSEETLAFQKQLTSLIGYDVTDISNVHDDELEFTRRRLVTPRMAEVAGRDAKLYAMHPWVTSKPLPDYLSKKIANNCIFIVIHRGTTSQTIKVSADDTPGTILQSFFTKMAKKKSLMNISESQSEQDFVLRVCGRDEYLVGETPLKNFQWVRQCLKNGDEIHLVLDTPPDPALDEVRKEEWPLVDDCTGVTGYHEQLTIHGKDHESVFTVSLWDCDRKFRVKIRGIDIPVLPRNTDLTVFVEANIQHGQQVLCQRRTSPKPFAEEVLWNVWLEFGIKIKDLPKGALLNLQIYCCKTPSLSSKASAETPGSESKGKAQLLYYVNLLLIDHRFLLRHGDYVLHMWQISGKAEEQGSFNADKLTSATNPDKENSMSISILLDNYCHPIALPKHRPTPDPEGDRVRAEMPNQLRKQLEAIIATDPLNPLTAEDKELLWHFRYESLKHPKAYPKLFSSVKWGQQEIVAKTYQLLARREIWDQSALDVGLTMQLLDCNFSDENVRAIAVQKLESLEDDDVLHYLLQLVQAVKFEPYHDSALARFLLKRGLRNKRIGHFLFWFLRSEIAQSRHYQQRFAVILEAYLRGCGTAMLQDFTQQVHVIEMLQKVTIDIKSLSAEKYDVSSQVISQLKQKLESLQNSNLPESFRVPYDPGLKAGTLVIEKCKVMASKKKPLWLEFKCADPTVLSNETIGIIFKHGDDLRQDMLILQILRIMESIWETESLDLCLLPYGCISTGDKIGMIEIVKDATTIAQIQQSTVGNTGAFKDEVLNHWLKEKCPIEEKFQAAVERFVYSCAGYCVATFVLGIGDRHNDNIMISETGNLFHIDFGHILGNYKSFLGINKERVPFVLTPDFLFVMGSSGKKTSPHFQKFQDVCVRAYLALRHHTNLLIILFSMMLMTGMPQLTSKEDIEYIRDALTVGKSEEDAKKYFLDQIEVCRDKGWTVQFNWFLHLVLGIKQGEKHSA

[
  {
    "SMI": "C#Cc1cccc2nc([C@H](C)NC(=O)c3c(N)nn4cccnc34)n(-c3ccc(F)cc3)c(=O)c12",
    "RAJIδ/Raw264.7 γ IC50 (selectivity)": "W (W = >1 to <10)"
  },
  {
    "SMI": "C[C@H](NC(=O)c1c(N)nn2cccnc12)c1cc2cccc(C#Cc3ccn(C)n3)c2c(=O)n1-c1ccccc1",
    "RAJIδ/Raw264.7 γ IC50 (selectivity)": "Y (Y = 50 to <850)"
  },
  {
    "SMI": "C[C@H](NC(=O)c1c(N)nn2cccnc12)c1cc2cccc(C#Cc3ccccc3)c2c(=O)n1-c1ccccc1",
    "RAJIδ/Raw264.7 γ IC50 (selectivity)": "W (W = >1 to <10)"
  },
  {
    "SMI": "C[C@H](NC(=O)c1c(N)nn2cccnc12)c1cc2cccc(C#CC(C)(C)N)c2c(=O)n1-c1ccccc1",
    "RAJIδ/Raw264.7 γ IC50 (selectivity)": "W (W = >1 to <10)"
  },
  {
    "SMI": "Cc1c(C#Cc2cccc3cc([C@H](C)NC(=O)c4c(N)nn5cccnc45)n(-c4ccccc4)c(=O)c23)cnn1C",
    "RAJIδ/Raw264.7 γ IC50 (selectivity)": "Y (Y = 50 to <850)"
  },
  {
    "SMI": "Cc1ncccc1C#Cc1cccc2cc([C@H](C)NC(=O)c3c(N)nn4cccnc34)n(-c3ccccc3)c(=O)c12",
    "RAJIδ/Raw264.7 γ IC50 (selectivity)": "X (X = 10 to <50)"
  },
  {
    "SMI": "CC(C)C#Cc1cccc2cc([C@H](C)NC(=O)c3c(N)nn4cccnc34)n(-c3ccccc3)c(=O)c12",
    "RAJIδ/Raw264.7 γ IC50 (selectivity)": "Y (Y = 50 to <850)"
  },
  {
    "SMI": "C[C@H](NC(=O)c1c(N)nn2cccnc12)c1cc2cccc(C#Cc3cnc[nH]3)c2c(=O)n1-c1ccccc1",
    "RAJIδ/Raw264.7 γ IC50 (selectivity)": "X (X = 10 to <50)"
  },
  {
    "SMI": "COc1ncc(C#Cc2cccc3cc([C@H](C)NC(=O)c4c(N)nn5cccnc45)n(-c4ccccc4)c(=O)c23)cn1",
    "RAJIδ/Raw264.7 γ IC50 (selectivity)": "X (X = 10 to <50)"
  },
  {
    "SMI": "C[C@H](NC(=O)c1cnn2cccnc12)c1cc2cccc(C#Cc3cnn(C)c3)c2c(=O)n1-c1ccccc1",
    "RAJIδ/Raw264.7 γ IC50 (selectivity)": "X (X = 10 to <50)"
  },
  {
    "SMI": "Cc1scnc1C#Cc1cccc2cc([C@H](C)NC(=O)c3c(N)nn4cccnc34)n(-c3ccccc3)c(=O)c12",
    "RAJIδ/Raw264.7 γ IC50 (selectivity)": "X (X = 10 to <50)"
  },
  {
    "SMI": "Cc1csc(C#Cc2cccc3cc([C@H](C)NC(=O)c4c(N)nn5cccnc45)n(-c4ccccc4)c(=O)c23)n1",
    "RAJIδ/Raw264.7 γ IC50 (selectivity)": "Y (Y = 50 to <850)"
  },
  {
    "SMI": "C[C@H](NC(=O)c1nccnc1N)c1cc2cccc(C#Cc3cnn(C)c3)c2c(=O)n1-c1ccccc1",
    "RAJIδ/Raw264.7 γ IC50 (selectivity)": "W (W = >1 to <10)"
  },
  {
    "SMI": "C[C@H](NC(=O)c1c(N)nn2cccnc12)c1cc2cccc(C#Cc3ccnn3C)c2c(=O)n1-c1ccccc1",
    "RAJIδ/Raw264.7 γ IC50 (selectivity)": "Y (Y = 50 to <850)"
  },
  {
    "SMI": "C[C@H](NC(=O)c1c(N)nn2cccnc12)c1cc2cccc(C#CC(C)(C)C)c2c(=O)n1-c1ccccc1",
    "RAJIδ/Raw264.7 γ IC50 (selectivity)": "X (X = 10 to <50)"
  },
  {
    "SMI": "C[C@H](NC(=O)c1c(N)nn2cccnc12)c1nc2cccc(C#Cc3cnn(C)c3)c2c(=O)n1C",
    "RAJIδ/Raw264.7 γ IC50 (selectivity)": "X (X = 10 to <50)"
  },
  {
    "SMI": "Cc1ccc(C#Cc2cccc3cc([C@H](C)NC(=O)c4c(N)nn5cccnc45)n(-c4ccccc4)c(=O)c23)cn1",
    "RAJIδ/Raw264.7 γ IC50 (selectivity)": "Y (Y = 50 to <850)"
  },
  {
    "SMI": "C[C@H](NC(=O)c1c(N)nn2cccnc12)c1cc2cccc(C#Cc3ccc(=O)n(C)c3)c2c(=O)n1-c1ccccc1",
    "RAJIδ/Raw264.7 γ IC50 (selectivity)": "X (X = 10 to <50)"
  },
  {
    "SMI": "Cc1nn(C)c(C)c1C#Cc1cccc2cc([C@H](C)NC(=O)c3c(N)nn4cccnc34)n(-c3ccccc3)c(=O)c12",
    "RAJIδ/Raw264.7 γ IC50 (selectivity)": "Y (Y = 50 to <850)"
  },
  {
    "SMI": "C[C@H](NC(=O)c1c(N)nn2cccnc12)c1cc2cccc(C#CCO)c2c(=O)n1-c1ccccc1",
    "RAJIδ/Raw264.7 γ IC50 (selectivity)": "W (W = >1 to <10)"
  },
  {
    "SMI": "C[C@H](NC(=O)c1c(N)nn2cccnc12)c1cc2cccc(CC(=O)c3cnn(C)c3)c2c(=O)n1-c1ccccc1",
    "RAJIδ/Raw264.7 γ IC50 (selectivity)": "W (W = >1 to <10)"
  },
  {
    "SMI": "C[C@H](NC(=O)c1c(N)nn2cccnc12)c1cc2cccc(C#CC3CC3)c2c(=O)n1C1CC1",
    "RAJIδ/Raw264.7 γ IC50 (selectivity)": "W (W = >1 to <10)"
  },
  {
    "SMI": "C#Cc1cccc2nc([C@H](C)NC(=O)c3c(N)nn4cccnc34)n(-c3ccc(F)c(F)c3)c(=O)c12",
    "RAJIδ/Raw264.7 γ IC50 (selectivity)": "W (W = >1 to <10)"
  }
]

###

assay: Mouse pharmacokinetics, oral single and repeat dose; assay type: in vivo; details: female, C57, mouse, plasma, po, 7.5 mg/kg, female C57 mice, 7.5 mg/kg PO NMP; read-out: AUC0-8

[
  {
    "MOLECULE": "Cc1c(C#Cc2cccc3nc([C@H](C)NC(=O)c4c(N)nn5cccnc45)n(-c4ccccc4)c(=O)c23)cnn1C [Compound 88]",
    "AUC(0-t) [ng·h/mL]": 15800
  }
]

###

experiment: Mouse pharmacokinetics, oral single and repeat dose; format: in vivo; details: mouse, plasma; female C57 mice, 15 mg/kg PO NMP
ENDPOINT: half-life

[
  {
    "SMI": "Cc1c(C#Cc2cccc3nc([C@H](C)NC(=O)c4c(N)nn5cccnc45)n(-c4ccccc4)c(=O)c23)cnn1C",
    "VALUE_MEASURED": "7.9 h"
  }
]
